Method: AUC (0 to t) in Sprague-Dawley rat at 10 mg/kg, po up to 24 hrs
Format: ADME, organism-based
Set-up: time < 24 hr, dose 10 mg/kg, route oral
Condition Info: in vivo
Reported Property: AUC(0-t) at 24 h

>>> reading("C=CC(=O)Nc1cc(Nc2ncc(C(=O)Nc3cc(NC(=O)c4cc(OC)c(OC)c(OC)c4)ccc3C)c(NC)n2)ccc1C")
"13.4 ng·h/mL"

----------
Method: Mean residence time (0 to t) in Sprague-Dawley rat at 10 mg/kg, po
Format: ADME, organism-based
Condition Info: in vivo
Reported Property: MRT last (h)

>>> reading("C=CC(=O)Nc1cc(Nc2ncc(C(=O)Nc3cc(NC(=O)c4cc(OC)c(OC)c(OC)c4)ccc3C)c(NC)n2)ccc1C")
2.76

----------
Tested System: Platelet-derived growth factor receptor beta (Homo sapiens)
Method: Inhibition of recombinant TEL-fused PDGFR-beta (unknown origin) expressed in mouse BAF3 cells assessed as growth inhibition after 72 hrs by CellTiter-Glo or CCK-8 assay
Type: cell-based
Below, each entry is listed with its recorded GI50.
Reported Property: GI50

>>> reading("C=CC(=O)Nc1cc(Nc2ncc(C(=O)Nc3cc(NC(=O)c4cccc(C(F)(F)F)c4)ccc3C)c(NC)n2)ccc1C")
"130 nM"
>>> reading("C=CC(=O)Nc1cc(Nc2ncc(C(=O)Nc3cc(NC(=O)c4cc(OC)c(OC)c(OC)c4)ccc3C)c(NC)n2)ccc1C")
"910 nM"
>>> reading("CCC(=O)Nc1cc(Nc2ncc(C(=O)Nc3cc(NC(=O)c4cccc(C(F)(F)F)c4)ccc3C)c(NC)n2)ccc1C")
"59 nM"
>>> reading("CCC(=O)Nc1cc(Nc2ncc(C(=O)Nc3cc(NC(=O)c4cc(OC)c(OC)c(OC)c4)ccc3C)c(NC)n2)ccc1C")
"790 nM"

----------
Tested System: Cytoplasmic tyrosine-protein kinase BMX (Homo sapiens)
Below, each entry is listed with its recorded GI50.
Reported Property: GI50 (µM)

>>> reading("C=CC(=O)Nc1cc(Nc2ncc3c(n2)N(C)C(=O)N(c2cc(NC(=O)[C@H]4CC[C@H](C(C)C)CC4)ccc2C)C3)ccc1C")
5.28
>>> reading("C=CC(=O)Nc1cc(Nc2ncc3c(n2)N(C)C(=O)N(c2cc(NC(=O)c4cc(OC)c(OC)c(OC)c4)ccc2C)C3)ccc1C")
5.93
>>> reading("C=CC(=O)Nc1cc(Nc2ncc(C(=O)Nc3cc(NC(=O)c4ccc5c(c4)OCCO5)ccc3C)c(NC)n2)ccc1C")
0.155
>>> reading("C=CC(=O)Nc1cc(Nc2ncc3c(n2)N(C)C(=O)N(c2cc(NC(=O)c4ccc(N(C)C)cc4)ccc2C)C3)ccc1C")
1.03

----------
Below, each entry is listed with its recorded pIC50.
Tested System: Mitogen-activated protein kinase 14 (Homo sapiens, UniProt Q16539)
Sequence (Q16539 whole entry): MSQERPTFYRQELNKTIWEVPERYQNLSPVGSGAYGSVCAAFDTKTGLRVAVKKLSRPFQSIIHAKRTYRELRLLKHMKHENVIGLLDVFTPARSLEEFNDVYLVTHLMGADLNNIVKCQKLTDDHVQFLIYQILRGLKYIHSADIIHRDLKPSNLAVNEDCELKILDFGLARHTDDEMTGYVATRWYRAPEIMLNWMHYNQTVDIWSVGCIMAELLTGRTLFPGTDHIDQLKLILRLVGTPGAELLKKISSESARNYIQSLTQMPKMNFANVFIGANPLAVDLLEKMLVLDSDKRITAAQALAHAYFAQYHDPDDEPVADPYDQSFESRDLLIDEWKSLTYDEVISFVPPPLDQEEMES
Method: Inhibition of full-length recombinant human GST-tagged p38alpha expressed in Escherichia coli by Z'-LYTE assay
pIC50: −log10 of the molar value.
Reported Property: pIC50

>>> reading("CCC(=O)Nc1cc(Nc2ncc(C(=O)Nc3cc(NC(=O)c4cc(OC)c(OC)c(OC)c4)ccc3C)c(NC)n2)ccc1C")
7.05
>>> reading("C=CC(=O)Nc1cc(Nc2ncc(C(=O)Nc3cc(NC(=O)c4cc(OC)c(OC)c(OC)c4)ccc3C)c(NC)n2)ccc1C")
6.97

----------
Tested System: Cytoplasmic tyrosine-protein kinase BMX (Homo sapiens)
Below, each entry is listed with its recorded log10 GI50.
Reported Property: log10 GI50 (log10 of the value in nM)

>>> reading("C=CC(=O)Nc1cc(Nc2ncc3c(n2)N(C)C(=O)N(c2cc(NC(=O)c4cc(C)ccc4F)ccc2C)C3)ccc1C")
1.49
>>> reading("C=CC(=O)Nc1cc(Nc2ncc3c(n2)N(C)C(=O)N(c2cc(NC(=O)[C@@H](N)CCC(=O)OC(C)(C)C)ccc2C)C3)ccc1C")
3.92
>>> reading("C=CC(=O)Nc1cc(Nc2ncc(C(=O)Nc3cc(NC(=O)c4cc(OC)cc(OC)c4)ccc3C)c(NC)n2)ccc1C")
2.08
>>> reading("C=CC(=O)Nc1cc(Nc2ncc(C(=O)Nc3cc(NC(=O)c4ccc5c(c4)OCO5)ccc3C)c(NC)n2)ccc1C")
3.03
>>> reading("C=CC(=O)Nc1cc(Nc2ncc3c(n2)N(C)C(=O)N(c2cc(NC(=O)c4c(C)cccc4F)ccc2C)C3)ccc1C")
3.44
>>> reading("C=CC(=O)Nc1cc(Nc2ncc3c(n2)N(C)C(=O)N(c2cc(NC(=O)c4ccc(C)c(C(F)(F)F)c4)ccc2C)C3)ccc1C")
3.09

----------
Method: Cmax in Sprague-Dawley rat at 1 mg/kg, iv up to 8 hrs
Type: ADME, organism-based
Design: dose 1 mg/kg, route intravenous
Condition Info: in vivo
Reported Property: Cmax

>>> reading("C=CC(=O)Nc1cc(Nc2ncc(C(=O)Nc3cc(NC(=O)c4cc(OC)c(OC)c(OC)c4)ccc3C)c(NC)n2)ccc1C")
"13600 ng/mL"

----------
Target protein (sequence): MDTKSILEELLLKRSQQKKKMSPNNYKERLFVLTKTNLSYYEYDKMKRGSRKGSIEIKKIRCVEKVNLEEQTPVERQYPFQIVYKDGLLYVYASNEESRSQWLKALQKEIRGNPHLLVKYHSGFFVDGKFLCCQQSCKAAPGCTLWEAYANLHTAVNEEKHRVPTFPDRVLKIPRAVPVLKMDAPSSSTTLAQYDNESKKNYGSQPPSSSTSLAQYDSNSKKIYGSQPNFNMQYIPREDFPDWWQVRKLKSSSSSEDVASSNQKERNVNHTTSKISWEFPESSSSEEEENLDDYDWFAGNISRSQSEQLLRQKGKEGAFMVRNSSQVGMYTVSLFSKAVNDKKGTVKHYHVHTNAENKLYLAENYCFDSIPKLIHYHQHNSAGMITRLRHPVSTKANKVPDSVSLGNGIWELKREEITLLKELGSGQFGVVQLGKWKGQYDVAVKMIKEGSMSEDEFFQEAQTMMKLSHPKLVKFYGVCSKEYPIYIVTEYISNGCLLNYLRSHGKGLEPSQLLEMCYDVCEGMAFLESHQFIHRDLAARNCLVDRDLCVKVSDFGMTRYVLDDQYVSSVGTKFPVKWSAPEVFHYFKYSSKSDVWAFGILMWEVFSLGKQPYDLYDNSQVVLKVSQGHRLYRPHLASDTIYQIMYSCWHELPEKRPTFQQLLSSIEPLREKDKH
Below, each entry is listed with its recorded GI50.
Reported Property: GI50 (nM)

>>> reading("C=CC(=O)Nc1cc(Nc2ncc(C(=O)Nc3cc(C(=O)Nc4cc(OC)c(OC)c(OC)c4)ccc3C)c(NC)n2)ccc1C")
98
>>> reading("C=CC(=O)Nc1cc(Nc2ncc3c(n2)N(C)C(=O)N(c2cc(NC(=O)[C@@H](N)CC(C)C)ccc2C)C3)ccc1C")
130
>>> reading("CCC(=O)Nc1cc(Nc2ncc(C(=O)Nc3cc(NC(=O)c4cccc(C(F)(F)F)c4)ccc3C)c(NC)n2)ccc1C")
85
>>> reading("C=CC(=O)Nc1cc(Nc2ncc(C(=O)Nc3cc(NC(=O)c4ccc(OC)c(OC)c4)ccc3C)c(NC)n2)ccc1C")
1000
>>> reading("C=CC(=O)Nc1cc(Nc2ncc3c(n2)N(C)C(=O)N(c2cc(NC(=O)c4ccc(OC)cc4OC)ccc2C)C3)ccc1C")
2740
>>> reading("C=CC(=O)Nc1cc(Nc2ncc(C(=O)Nc3cc(NC(=O)c4ccc(OC)cc4)ccc3C)c(NC)n2)ccc1C")
1100
>>> reading("C=CC(=O)Nc1cc(Nc2ncc3c(n2)N(C)C(=O)N(c2cc(NC(=O)c4cc(C(F)(F)F)cc(C(F)(F)F)c4)ccc2C)C3)ccc1C")
780
>>> reading("C=CC(=O)Nc1cc(Nc2ncc(C(=O)Nc3cc(NC(=O)c4cc(C)ccc4F)ccc3C)c(NC)n2)ccc1C")
44
>>> reading("C=CC(=O)Nc1cc(Nc2ncc3c(n2)N(C)C(=O)N(c2cc(NC(=O)c4cc(OC)ccc4OC)ccc2C)C3)ccc1C")
3000
>>> reading("C=CC(=O)Nc1cc(Nc2ncc3c(n2)N(C)C(=O)N(c2cc(NC(=O)[C@H]4CC[C@H](C(F)(F)F)CC4)ccc2C)C3)ccc1C")
5900
>>> reading("C=CC(=O)Nc1cc(Nc2ncc(C(=O)Nc3cc(C(=O)Nc4cccc(C(F)(F)F)c4)ccc3C)c(NC)n2)ccc1C")
8
>>> reading("C=CC(=O)Nc1cc(Nc2ncc3c(n2)N(C)C(=O)N(c2cc(NC(=O)c4cc(OC)cc(OC)c4)ccc2C)C3)ccc1C")
690
>>> reading("C=CC(=O)Nc1cc(Nc2ncc3c(n2)N(C)C(=O)N(c2cc(NC(=O)c4ccc(OC)c(OC)c4)ccc2C)C3)ccc1C")
240
>>> reading("C=CC(=O)Nc1cc(Nc2ncc3c(n2)N(C)C(=O)N(c2cc(NC(=O)c4ccc(OC)cc4)ccc2C)C3)ccc1C")
1070
>>> reading("C=CC(=O)Nc1cc(Nc2ncc(C(=O)Nc3cc(NC(=O)c4cccc(OC)c4)ccc3C)c(NC)n2)ccc1C")
6000
>>> reading("C=CC(=O)Nc1cc(Nc2ncc3c(n2)N(C)C(=O)N(c2cc(NC(=O)c4ccc5c(c4)OCO5)ccc2C)C3)ccc1C")
230
